# Tested on: DDR1
# Measurement Setup: concentration: 1 μM, replicates: in singlicate; n = 1;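 note: KINOMEscan kinase panel screen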
Would you mind telling me the reported %Inh of each entry?

Problem: I'd like to know its %Inh. The compound in question is Cc1c(Cn2c(C)nn3c(=O)cc(N4CCOC(C)C4)nc23)cccc1C(F)(F)F (stereo not shown)
Solution: 14%

Problem: Which %Inh reading was recorded for the compound O=c1cc(N2CCOCC2)nc2n(Cc3cccc(C(F)(F)F)c3)ccn12 ?
Solution: 0%

Problem: Name the reported %Inh value associated with the compound NS(=O)(=O)c1cccc(-c2ccc3ncc(N4CCOCC4)nc3c2)c1
Solution: 0%

Problem: Sample COc1ccc(Nc2ncc(C#N)c(Nc3ccccc3C(N)=O)n2)cc1N1CCN(C)CC1.Cl — what was its %Inh?
Solution: 100%

###

For each entry below, report its %Inh value.
# Tested on: RSK1(Kin.Dom.2-C-terminal)
# Construct: gene RPS6KA1
# Measurement Setup: concentration: 1 μM, replicates: in singlicate; n = 1
Lab book: enter the figure in %, no units written.

Problem: Given the compound O=C1NC(=O)C(N2CCc3ccccc32)=C1c1cccc(Cl)c1 , what is its reported %Inh?
Solution: 11

Problem: Recorded %Inh of c1ccc(-c2n[nH]cc2-c2ccnc3ccccc23)nc1 , please.
Solution: 12

Problem: Item O=C(NCCNc1ccnc(Nc2ccc(F)cc2)n1)c1cc2ccccc2s1 has what recorded %Inh?
Solution: 0

Problem: Can you look up the measured %Inh of O=c1cc(N2CCOCC2)nc2n(Cc3cccc4ccccc34)ccn12 for me?
Solution: 0

Problem: // %Inh lookup, key: CN1c2ccc(NCc3ccc(F)cc3)cc2-c2c(cnn2C)S1(=O)=O
Solution: 20

Problem: What %Inh value was documented for this compound, COCCNC(=O)c1ccc(-c2cc(C(=O)NC3CC3)cc(F)c2C)cc1 ?
Solution: 18

Problem: What value of %Inh has been recorded for this entry: Cc1nnc(-c2ccc3occ(-c4ccc(C(C)O)cc4)c3c2)o1 (stereo not drawn)
Solution: 1

Problem: For O=C(NOCC1CC1)c1ccc(F)c(F)c1Nc1ccc(I)cc1Cl , what is its reported %Inh?
Solution: 6

Problem: // lookup %Inh for NS(=O)(=O)CCc1cccc(Nc2nccc(-c3c(-c4cccc(NC(=O)c5c(F)cccc5F)c4)nn4ccccc34)n2)c1
Solution: 0

Problem: # %Inh lookup, item CN(C(=O)c1ccc(-c2cc(-c3c[nH]nc3-c3ccccn3)ccn2)cc1)C1CCOCC1
Solution: 0

Problem: Requested read-out: %Inh. Entry: N#Cc1c(N2CCOCC2)sc(-c2ccn[nH]2)c1-c1ccc(Cl)cc1
Solution: 18

Problem: Request the reported %Inh associated with CC(=O)Nc1ccc(COc2ccc(Nc3ccnc4cc(-c5ccccn5)ccc34)cc2)cc1.Cl
Solution: 33

Problem: Item under review: O=C(Nc1cccc(-c2nn3ncccc3c2-c2ccnc(Nc3cccc(C(F)(F)F)c3)n2)c1)c1c(F)cccc1F . Reported %Inh?
Solution: 0

Problem: Quick check: %Inh of Cl.Nc1ncnc2occ(-c3ccc(NC(=O)Nc4cc(C(F)(F)F)ccc4F)cc3)c12 ?
Solution: 30

Problem: If you can, please state the reported %Inh value of COc1cc2c(cc1OCCN1CCN(C)CC1)ncc1c3ccc(C#N)cc3[nH]c21 .
Solution: 26

Just for reference, paper PMC5540273 is where these values come from.
